# systemUnderTest: HIV-1 NefNL4-3 (Human immunodeficiency virus type 1 group M subtype B, UniProt P03406, A33V/T15A/T51N/V11I)
# testName: Surface plasmon resonance binding to recombinant full-length Nef (NL4-3)
# cond: read-out: Nef NL4-3 Binding, SPR 1:1 or 2-site fitting KD2; Table 1; 2-site fit, second component
observationType: Kd
Units required after the number.

Sample answers from the record:
compound	Kd
Cn1ccc(-c2nn(-c3nc4ccccc4[nH]3)c(O)c2CCc2ccc(F)cc2)cc1=O [Compound I-133]	65.3 µM
O=C(OCc1ccccc1)N1CCCC(c2nn(-c3nc4ccccc4[nH]3)c(O)c2CCc2ccc(F)cc2)C1 (stereo not shown) [Compound I-160]	2.62 µM
O=C(C1CC1)N1CCC(CCc2c(C3CC3)nn(-c3nc4cc(Cl)ccc4[nH]3)c2O)CC1 [Compound I-711]	8.64 µM

For the next question, use this compound.
Name the recorded Kd of the compound listed here: C=CCc1c(-c2ccc(C(F)(F)F)cc2)nn(-c2nc3ccccc3[nH]2)c1O [Compound I-115] 5.7 µM
